Experiment: regulators of yeast V-ATPase proton pumping, primary screen, pHLuorin cytosolic pH fluorescence (AID 504577)
Details: S. cerevisiae, at 10 µM
The whole screen tested about 350,000 compounds, of which about 1,300 (0.37%) were called active. Rule as the data show it: active = response mostly above about 7.3% (no sharp cut-off); inactive = mostly below about 5.4%. The sample as a whole holds a higher share of actives than the screen did.
Your answer must be one of the following: Y for active, N for inactive

>  <Molecule>
COc1ccc(N2C(=O)/C(=C/c3ccco3)C(=O)NC2=S)cc1

>  <Class>
N

$$$$
>  <Molecule>
COc1cccc(N2C(=O)NC(=O)/C(=C\c3ccc([N+](=O)[O-])s3)C2=O)c1

>  <Class>
Y

$$$$
>  <Molecule>
CC12CCC(O)CC1CCC1C2CCC2(C)C(C(=O)CC(O)C(F)(F)F)CCC12 (stereo not given)

>  <Class>
N

$$$$
>  <Molecule>
Cc1ccc(-n2c(C)cc(/C=C3\C(=O)NC(=O)N(C)C3=O)c2C)cc1C

>  <Class>
N

$$$$
>  <Molecule>
O=C(COC(=O)Cc1ccccc1)Nc1ccc(F)cc1

>  <Class>
N

$$$$

Here is the next item to consider.
Outcome logged for CCCC(C)n1[nH]c(=O)c2c1NC(=O)CSC2c1ccc(OC)c(OC)c1 (stereo not given) in this assay:
N

###

Experiment: regulators of yeast V-ATPase proton pumping, primary screen, pHLuorin cytosolic pH fluorescence (AID 504577)
Details: S. cerevisiae, at 10 µM, active compounds read high
Among all 350,000 compounds or so, about 1,300 (0.37%) were called active. For the sample, actives were picked, then their nearest neighbours and some compounds at random.
Assay Metric: response (%)
// units = %; emit number, no label

Sample answers from the record:
>  <Entry Smiles>
Cc1nc2nc(C)c(CCC(=O)N3CCC4(CC3)OCCO4)c(C)n2n1

>  <response, %>
-4.03

$$$$
>  <Entry Smiles>
COc1ccc(Br)cc1CNCCc1cccc(Cl)c1

>  <response, %>
1.48

$$$$

Switching to the query record.
The recorded response for `CNC(=O)N(C)c1nnc(C(C)(C)C)s1` is 2.46

###

Assay: regulators of yeast V-ATPase proton pumping, primary screen, pHLuorin cytosolic pH fluorescence (AID 504577)
Conditions: S. cerevisiae, at 10 µM
The campaign covered roughly 350,000 compounds. About 1,300 (0.37%) were called active. Rule as the data show it: active = response mostly above about 7.3% (no sharp cut-off); inactive = mostly below about 5.4%. The list comes from a sample in which actives are over-represented; it also holds close analogues and randomly drawn compounds.
Log the outcome using a class from 1.0 = active, 0.0 = inactive

Worked examples follow.
>  <Molecule>
N=c1ccccn1Cc1ccccc1

>  <Class>
0.0

$$$$
>  <Molecule>
Cc1c(C(=O)O)cccc1-n1c(C)cc(/C=C2\C(=O)NC(=O)N(c3ccc4c(c3)OCO4)C2=O)c1C

>  <Class>
0.0

$$$$
>  <Molecule>
CCN(CC)C(=O)c1ccc(NC(=O)c2sccc2-c2ccccc2)cc1

>  <Class>
0.0

$$$$

// switching to the query molecule
Identify the outcome logged in this assay for the molecule shown: CC(=O)Nc1ccc(C(=O)C(Cc2ccccc2)N(C)C)cc1 (centres undefined)
1.0

Attribution: PubChem BioAssay AID504577
